Tested on: Sprague-Dawley rat hepatocytes
Experimental protocol: MetID determination in rat hepatocytes
Assay type: in vitro ADME
Condition set: incubation of 10 μM mPEG4-N-metoclopramide; parent and its metabolites M (FIG. 3)
Quantity name: % of Total Metabolism, Rat Hep 1 hr (%)

# Compound, % of Total Metabolism, Rat Hep 1 hr / %
rows = [
    ("CCN(CCNC(=O)c1cc(Cl)c(N)cc1OC)CCOCCOCCOCCOC [mPEG4-N-Metoclopramide]", 61.5),
]

[I] CCN(CCNC(=O)c1cc(Cl)c(N)cc1OC)CCOCCO [M7]
[II] CCN(CCNC(=O)c1cc(Cl)c(N)cc1OC)CCOCCOCCOCCO [M9]
# input Would you mind telling me which has the lower recorded % of Total Metabolism, Rat Hep 1 hr between I and II ? Pick one; state its label.
# output I
